Values compiled from patent US6642227B2.

Consider the following molecules; for each one, report its Ki.
Tested on: activated JNK3 (Homo sapiens, UniProt P53779)
Construct: One such construct encodes amino acid residues Ser40-Glu402 of JNK3α1 and is preceded by Met and Gly residues; Met-Gly dipeptide (initiator Met plus Gly added for the NcoI site) (N)
Sequence (P53779 40-402): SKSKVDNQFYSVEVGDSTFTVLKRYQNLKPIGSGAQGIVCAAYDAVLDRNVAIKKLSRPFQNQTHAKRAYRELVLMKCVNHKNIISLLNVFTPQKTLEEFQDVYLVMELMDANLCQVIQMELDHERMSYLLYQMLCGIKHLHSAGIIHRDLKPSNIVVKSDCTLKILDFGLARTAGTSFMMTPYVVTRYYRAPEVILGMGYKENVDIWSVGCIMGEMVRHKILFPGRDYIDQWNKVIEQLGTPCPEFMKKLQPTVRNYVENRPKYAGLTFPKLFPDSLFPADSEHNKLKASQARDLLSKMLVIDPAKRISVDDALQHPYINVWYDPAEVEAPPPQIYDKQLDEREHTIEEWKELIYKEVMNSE
Run description: JNK inhibition assay (spectrophotometric coupled-enzyme assay)
Test context: activated JNK3 10 nM, 10 μM ATP, 30° C.; read-out: JNK3 Activity (Ki class A-C)
Source text: A BLAST search of the EST database using the published JNK3α1 cDNA as a query identified an EST clone (#632588) that contained the entire coding sequence for human JNK3α1. Polymerase chain reactions (PCR) using pfu polymerase (Strategene) were used to introduce restriction sites into the cDNA for cloning into the pET-15B expression vector at the NcoI and BamHI sites. The protein was expressed in E. coli. […]

{"columns": ["Compound structure", "Tested on", "Ki"],
 "data": [
  ["CSc1sc(-c2ccnc(Nc3ccccc3)n2)c(-c2ccc(Cl)cc2)c1C#N", "activated JNK3 (Homo sapiens, UniProt P53779)", "< 0.1 µM"],
  ["CSc1sc(-c2ccnc(Nc3ccccc3)n2)c(-c2ccc(C)cc2)c1C#N", "activated JNK3 (Homo sapiens, UniProt P53779)", "< 0.1 µM"]
]}

Dear reader, for each entry below, please note its Ki.
1. CCOc1sc(-c2ccnc(Nc3ccccc3)n2)c(-c2ccc(Cl)cc2)c1C#N
2. Cc1cnc(Nc2ccccc2)nc1-c1sc(SCc2ccc(O)cc2)c(C#N)c1-c1cccc(Cl)c1
3. CCOc1sc(-c2ccnc(Nc3ccccc3)n2)c(-c2ccc(C)cc2)c1C#N

< 0.1 µM
0.1 to 1 µM
< 0.1 µM

###

Tested on: human Src kinase (Homo sapiens)
Construct: full length recombinant human Src kinase
Sequence (P12931 whole entry): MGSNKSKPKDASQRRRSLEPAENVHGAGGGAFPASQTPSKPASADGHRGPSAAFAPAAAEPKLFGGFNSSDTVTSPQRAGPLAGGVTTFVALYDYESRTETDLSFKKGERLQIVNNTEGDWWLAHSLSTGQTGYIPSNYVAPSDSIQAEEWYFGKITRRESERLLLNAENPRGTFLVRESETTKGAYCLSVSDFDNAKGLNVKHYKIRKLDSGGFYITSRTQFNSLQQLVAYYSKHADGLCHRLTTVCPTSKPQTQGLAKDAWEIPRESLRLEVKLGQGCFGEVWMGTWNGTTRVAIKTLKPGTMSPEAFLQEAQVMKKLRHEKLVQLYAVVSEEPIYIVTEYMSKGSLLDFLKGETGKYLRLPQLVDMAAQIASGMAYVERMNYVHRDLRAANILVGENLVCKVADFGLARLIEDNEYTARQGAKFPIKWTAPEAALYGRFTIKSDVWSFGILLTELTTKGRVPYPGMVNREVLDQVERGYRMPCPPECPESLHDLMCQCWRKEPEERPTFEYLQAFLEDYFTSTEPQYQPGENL
Run description: Src inhibition assay (A: radioactivity-based or B: spectrophotometric coupled-enzyme assay)
Test context: assay A or B not specified; read-out: Src Activity (Ki class A-C)
Experimental: The compounds were evaluated as inhibitors of human Src kinase using either a radioactivity-based assay or spectrophotometric assay. […] Inhibitors dissolved in DMSO were added to the wells to give a final DMSO concentration of 2.5%. […] The plates were sealed and the amount of radioactivity associated with the filters was quantified on a TopCount scintillation counter. The radioactivity incorporated was plotted as a function of the inhibitor concentration. […]
pKi: −log10 of the molar value.
Could you please report measured pKi for the items listed next?

Examples from the recorded data:
{"columns": ["Compound", "Measurement type", "Result"],
 "data": [
  ["CSc1sc(-c2ccnc(Nc3cccc(OCCCNCCCO)c3)n2)c(-c2cccc(OCc3ccccc3)c2)c1C#N [VI-133]", "pKi", "> 7.00"],
  ["CSc1sc(-c2ccnc(Nc3cccc(NC(=O)CCCNC(C)=O)c3)n2)c(-c2cccnc2)c1C#N [VI-130]", "pKi", "> 7.00"]
]}

Below are some compounds; for each one, tell me its pKi.
1. CSc1sc(-c2nc(Nc3cccc(OCCNCCO)c3)ncc2C)c(-c2cccnc2)c1C#N [VI-119]
2. CSc1sc(-c2ccnc(Nc3cccc(OCCCNCCCO)c3)n2)c(-c2cccc(O)c2)c1C#N [VI-135]
3. CSc1sc(-c2nc(Nc3cccc(OCCCN4CCOCC4)c3)ncc2C)c(-c2cccnc2)c1C#N [VI-117]
4. CCNc1sc(-c2ccnc(Nc3cccc(OC)c3)n2)c(-c2ccccc2)c1C(=O)OCC [IIa-90]

6.00 to 7.00
> 7.00
6.00 to 7.00
< 6.00

###

Tested on: human Src kinase (Homo sapiens)
Construct: full length recombinant human Src kinase
Run description: Src inhibition assay (A: radioactivity-based or B: spectrophotometric coupled-enzyme assay)
Test context: assay A or B not specified; read-out: Src Activity (Ki class A-C)
pKi: −log10 of the molar value.
Could you please report measured pKi for the items listed next?

{"columns": ["Compound", "Measurement type", "Result"],
 "data": [
  ["COCCNCCCOc1cccc(Nc2ncc(C)c(-c3sc(SC)c(C#N)c3-c3cccnc3)n2)c1 [VI-20]", "pKi", "> 7.00"]
]}

// input: 6 compounds below; output: pKi for each
1. CSc1sc(-c2nc(Nc3cccc(OCCN4CCC(CO)CC4)c3)ncc2C)c(-c2cccnc2)c1C#N [VI-120]
2. CSc1sc(-c2nc(Nc3cccc(OCCCN4CCC[C@H]4CO)c3)ncc2C)c(-c2cccnc2)c1C#N [VI-24]
3. CSc1sc(-c2ccnc(Nc3cccc(OCCCNCCO)c3)n2)c(-c2cccc(OCc3ccccc3)c2)c1C#N [VI-132]
4. N#Cc1c(O)sc(-c2ccnc(Nc3cccc(OCc4ccccc4)c3)n2)c1-c1ccccc1 [IIa-42]
5. CCCCS(=O)(=O)Nc1cccc(Nc2nccc(-c3sc(SC)c(C#N)c3-c3cccnc3)n2)c1 [VI-141]
6. CSc1sc(-c2nc(Nc3cccc(OCCCN4CCNCC4)c3)ncc2C)c(-c2cccnc2)c1C#N [VI-118]

["> 7.00", "> 7.00", "6.00 to 7.00", "> 7.00", "> 7.00", "6.00 to 7.00"]

// pKi lookup, compound = CSc1sc(-c2ccnc(Nc3cccc(OCCCNCCO)c3)n2)c(-c2cccc(O)c2)c1C#N [VI-134] , result: > 7.00
